test: RP, Waters ACQUITY UPLC HSS T3, 100 × 2.1 mm, 1.8 µm, 30 °C, 0.3 mL/min, estimated dead time 0.73 min; A: water + 0.1% formic acid, pH 3; B: methanol + 0.1% formic acid, pH 3; gradient (min/%B) 0/0 6/0 56/100 60/100; conditions: stereoisomer not certain
# note: exactly 10 min is not below, so it is 0; use 1 for LC retention time strictly under it

// query I'd appreciate it if you could check whether C[n+]1cccc(C(=O)[O-])c1 has LC retention time smaller than 10 min.
// result 1

// query I'd appreciate it if you could check whether COc1cc(-c2oc3cc(O)cc(O)c3c(=O)c2OC2OC(COC3OC(C)C(O)C(O)C3O)C(O)C(O)C2O)ccc1O (centres undefined) [isorhamnetin 3-rutinoside] has LC retention time smaller than 10 min.
// result 0

// query I'd appreciate it if you could check whether NC(N)=O has LC retention time smaller than 10 min.
// result 1

// query I'd appreciate it if you could check whether CCCCCCCCCCCCCCCC(=O)O has LC retention time smaller than 10 min.
// result 0

// query I'd appreciate it if you could check whether CC(C)=CCCC(C)=CCOC(=O)Cc1ccccc1 [geranyl phenylacetate] has LC retention time smaller than 10 min.
// result 0

// query I'd appreciate it if you could check whether O=Cc1ccc(CO)o1 [5-hydroxymethyl-2-furaldehyde] has LC retention time smaller than 10 min.
// result 0

// query I'd appreciate it if you could check whether COc1cc(C=O)cc(OC)c1O has LC retention time smaller than 10 min.
// result 0

// query I'd appreciate it if you could check whether CCCCCCCC(=O)O has LC retention time smaller than 10 min.
// result 0

// query I'd appreciate it if you could check whether COc1cc(-c2[o+]c3cc(O)cc(O)c3cc2O)cc(O)c1O has LC retention time smaller than 10 min.
// result 0

// query I'd appreciate it if you could check whether COc1ccc2oc(-c3ccccc3)cc(=O)c2c1 has LC retention time smaller than 10 min.
// result 0

// query I'd appreciate it if you could check whether OCC1OC(OC2(CO)OC(CO)C(O)C2O)C(O)C(O)C1O (centres undefined) has LC retention time smaller than 10 min.
// result 1

// query I'd appreciate it if you could check whether O=C(O)C=C(CC(=O)O)C(=O)O [cis-acotinic acid] has LC retention time smaller than 10 min.
// result 1

// query I'd appreciate it if you could check whether COc1cc(-c2oc3cc(=O)cc4oc(C)cc(c2OC2OC(CO)C(O)C(O)C2O)c43)cc(OC)c1O (centres undefined) [methylpyrano malvidin 3-glucoside] has LC retention time smaller than 10 min.
// result 0

// query I'd appreciate it if you could check whether O=C1OC(C(O)CO)C(=O)C1=O (centres undefined) [dehydroascorbic acid] has LC retention time smaller than 10 min.
// result 1

// query I'd appreciate it if you could check whether OCC1OC(Oc2cc3c(OC4OC(CO)C(O)C(O)C4O)cc(O)cc3[o+]c2-c2ccc(O)c(O)c2)C(O)C(O)C1O (centres undefined) [cyanidin-3,5-diglucoside] has LC retention time smaller than 10 min.
// result 0

// query I'd appreciate it if you could check whether Nc1nc2nc[nH]c2c(=O)[nH]1 has LC retention time smaller than 10 min.
// result 1

// query I'd appreciate it if you could check whether NCCCC[C@H](N)C(=O)O has LC retention time smaller than 10 min.
// result 1

// query I'd appreciate it if you could check whether Nc1ccc(C(=O)O)cc1 has LC retention time smaller than 10 min.
// result 0

// query I'd appreciate it if you could check whether CC1OC(Oc2c(-c3cc(O)c(O)c(O)c3)oc3cc(O)cc(O)c3c2=O)C(O)C(O)C1O (centres undefined) [Myricitrin (myricetin 3-O-rhamnoside)] has LC retention time smaller than 10 min.
// result 0
